Please provide measured abundance fitness for the entries that follow.
B1: E3 ubiquitin-protein ligase NEDD4, residues 836 to 881; numbered along this chain, P46934 (parent)
chain: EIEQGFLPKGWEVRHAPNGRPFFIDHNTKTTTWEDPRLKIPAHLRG

Variants of: B1
Assay Text: abundance fitness (aPCA) (normalised: wild type 0, dead -1); higher = more abundant; growth selection in yeast, the domain comes from the species named
Assay Context: Homo sapiens
Lab note: write the figure by itself, no unit.

The variant listed as T30M has a reported abundance fitness of -0.206

What the record says about I24E : abundance fitness is -0.849

Entry under test: F23Q . Its abundance fitness was -0.824

abundance fitness measured on R37C = -0.611

Per the record, G19C has abundance fitness of -0.929

Consider L38I . Its measured abundance fitness is -0.043

Given item K39A , the value recorded as its abundance fitness is -0.085

abundance fitness reported for this variant T30F : -0.466

Consider L38D . Its measured abundance fitness is 0.036

The variant listed as R37W has a reported abundance fitness of -0.812

Sure, the documented abundance fitness for I40M is -0.026

abundance fitness for A42N is -0.015

Notebook: P21L , abundance fitness read as -0.131

# abundance fitness (variant: L38T ) is 0.033

Form field abundance fitness, entry R45C : 0.019

# abundance fitness (variant: H43N ) is -0.084

Value of measured abundance fitness for the entry N27M : -0.409

Entry under test: N27H . Its abundance fitness was -0.543

In plain terms, K39V has a documented abundance fitness of -0.201

// abundance fitness lookup, variant = P41S , result: -0.139

abundance fitness reading for W33S : -0.307

The variant listed as T28E shows abundance fitness equal to -0.218

Briefly, abundance fitness measured for L44K : -0.154

variant H43D , abundance fitness observed: -0.177

// abundance fitness value for I24G : -0.98

variant D35N , abundance fitness observed: -0.979
